Would you kindly list pest or weed control at 121.5 g/ha for each of these molecules?
# Test system: Mycosphaerella graminicola; Anamorph: Septoria tritici
# assay-text: Leaf Blotch of Wheat (SEPTTR) fungicidal activity on wheat seedlings
# Type: in vivo
# experimental-context: Zymoseptoria tritici, 24 h; Low Volume, 121.5 g/H; 1 Day Protectant; read-out: SEPTTR 1DP disease control

stdin: Give pest or weed control at 121.5 g/ha (Mycosphaerella graminicola; Anamorph: Septoria tritici) of the following molecule: COc1ccnc(C(=O)N[C@@H](C)C(=O)O[C@@H](C)C(c2ccc(Cl)cc2)c2ccc(Cl)cc2)c1OCOC(C)=O [Cmpd 176]
stdout: > 80%

stdin: Also check COc1ccnc(C(=O)N[C@@H](C)C(=O)O[C@@H](C)C(c2ccc(F)cc2)c2ccc(F)cc2)c1OC(=O)C(C)(C)C [Cmpd 207]
stdout: > 80%

stdin: Also check COc1ccnc(C(=O)N[C@@H](C)C(=O)OC(C)C2c3ccccc3-c3ccccc32)c1OCOC(C)=O (stereo partly shown) [Cmpd 163]
stdout: < 80%

stdin: Also check COc1ccnc(C(=O)N[C@@H](C)C(=O)O[C@@H](C)C(c2ccc(Br)cc2)c2ccc(Br)cc2)c1OC(C)=O [Cmpd 165]
stdout: > 80%

stdin: Also check COc1ccnc(C(=O)N[C@@H](C)C(=O)O[C@@H](C)C(c2ccc(F)c(Cl)c2)c2ccc(F)c(Cl)c2)c1OC(C)=O [Cmpd 216]
stdout: > 80%

stdin: Also check COc1ccnc(C(=O)N[C@@H](C)C(=O)O[C@@H](C)[C@@H](c2ccccc2)c2ccc(C(F)(F)F)cc2)c1OC(C)=O [Cmpd 173]
stdout: > 80%

stdin: Also check COc1ccnc(C(=O)N[C@@H](C)C(=O)OC(C)C2c3ccccc3-c3ccccc32)c1OC(C)=O (stereo partly shown) [Cmpd 161]
stdout: < 80%

---

# Tested on: Mycosphaerella graminicola; Anamorph: Septoria tritici
# assay-text: Leaf Blotch of Wheat (SEPTTR) fungicidal activity on wheat seedlings
# Type: in vivo
# experimental-context: Zymoseptoria tritici, 72 h; Low Volume, 121.5 g/H; 3 Day Curative; read-out: SEPTTR 3DC disease control
measurement-type: pest or weed control at 121.5 g/ha

stdin: Look at this molecule and give its reported pest or weed control at 121.5 g/ha. COc1ccnc(C(=O)N[C@@H](C)C(=O)O[C@@H](C)C(c2ccc(F)c(C)c2)c2ccc(F)c(C)c2)c1OC(C)=O [Cmpd 217]
stdout: > 80%

stdin: Also check COc1ccnc(C(=O)N[C@@H](C)C(=O)O[C@@H](C)C(c2ccc(F)c(Cl)c2)c2ccc(F)c(Cl)c2)c1OC(C)=O [Cmpd 216]
stdout: < 80%

stdin: Also check CCCCC(=O)Oc1c(OC)ccnc1C(=O)N[C@@H](C)C(=O)O[C@@H](C)C(c1ccc(F)cc1)c1ccc(F)cc1 [Cmpd 213]
stdout: > 80%

stdin: Also check COc1ccnc(C(=O)N[C@@H](C)C(=O)O[C@@H](C)C(c2ccc(F)cc2)c2ccc(F)cc2)c1OCOC(=O)C(C)C [Cmpd 211]
stdout: > 80%

stdin: Also check COc1ccnc(C(=O)N[C@@H](C)C(=O)OC(C)C2c3ccccc3Oc3ccccc32)c1OC(C)=O (stereo partly shown) [Cmpd 162]
stdout: < 80%

stdin: Also check COc1ccnc(C(=O)N[C@@H](C)C(=O)O[C@@H](C)C(c2ccccc2)c2ccccc2)c1OCOC(C)=O [Cmpd 141]
stdout: > 80%

stdin: Also check COc1ccnc(C(=O)N[C@@H](CC(C)C)C(=O)O[C@@H](C)C(c2ccc(F)cc2)c2ccc(F)cc2)c1OCOC(C)=O [Cmpd 186]
stdout: < 80%
